# Tested on: iPSC-CMs, iPSC-ECs and HUVECs phenotypes
# Test details: ToxPi 2.0 integration of POD values and physicochemical descriptors
# Design: species or system human
# Assay setup: ToxPi-scaled (0-1) score; HUVECs, 24 h
Counter-ions that a name gives are not always drawn.
Measured parameter: huvec.mitoint.24hr
The answer should be written as a number, with no unit following it.

Oc1ccccc1-c1ccc(Cl)cc1 ... 0.2116
O=S(=O)(O)Oc1cc(Cl)c(-c2cc(Cl)ccc2Cl)cc1Cl [4-PCB 52 sulfate] ... 0.09717
Clc1cc(Cl)c(-c2cc(Cl)c(Cl)cc2Cl)cc1Cl ... 0.9487
O=S(=O)(O)Oc1ccc(-c2cccc(Cl)c2)cc1Cl [4-PCB 11 sulfate] ... 0.4402

Query: Consider the compound shown here: O=S(=O)(O)Oc1cccc(-c2ccc(Cl)cc2)c1 [3'-PCB 3 sulfate] What is its recorded huvec.mitoint.24hr?
Result: 0

Query: Please answer likewise for COc1cc(Cl)c(-c2cc(Cl)ccc2Cl)cc1Cl
Result: 0.7163

---

Entries and their minimal effective concentration
# System: iCell cardiomyocytes (human iPSC-derived cardiomyocytes)
# Test details: High-content imaging of cytotoxicity and mitochondrial integrity in iPSC-CMs
# Type: cell-based
# Assay setup: Homo sapiens, Cardiomyocyte, 1.5 h, cardiomyocytes (cm), cam, 90 min; read-out: POD cm.cam.90min
Give the value, in units of µM, as a plain number.

Worked set:
COc1ccc(-c2ccc(Cl)cc2)cc1 ... 100
Clc1ccc(Cl)c(-c2c(Cl)ccc(Cl)c2Cl)c1 ... 36.6
Oc1ccc(-c2cccc(Cl)c2)cc1Cl ... 27.7
COc1cc(Cl)c(-c2cc(Cl)ccc2Cl)cc1Cl ... 27.6

Let us examine a further case.
Query: Consider the compound shown here: Clc1ccc(-c2cc(Cl)c(Cl)c(Cl)c2)cc1Cl What is its recorded minimal effective concentration?
Result: 100

---

# Test system: HUVECs
# Test details: High-content imaging cytotoxicity in HUVECs, 24 h
# Assay type: cell-based, human
# Assay setup: Homo sapiens, HUVEC, 24 h, HUVECs, 24 hrs, 0.10 µM; 0.00 µM = 100.00; read-out: huvec.tc.24hrs
# Method: Similar to the cultivation of iCell®-endothelial cells, HUVEC maintenance and experimentation are detailed elsewhere ([Iwata et al. 2017]). […] Cytotoxicity was assessed in parallel experiments. […] Phenotypic responses were quantitatively assessed using concentration–response modeling as detailed elsewhere ([Sirenko et al. 2017]). Briefly, phenotypic readouts were normalized to vehicle controls and fit to a four-parameter logistic model in R studio software (version 3.1.1; R Development Core Team). […]
Structures can show the parent of a compound that is named as a salt.
Entries and their viability at 0.1 µM
Give the value, in units of %, as a plain number.

Worked set:
COc1ccc(-c2cccc(Cl)c2)cc1Cl [4-OMe PCB11] ... 98.4
Clc1ccc(Cl)c(-c2cc(Cl)ccc2Cl)c1 [PCB52] ... 97.3
O=S(=O)(O)Oc1cc(Cl)ccc1-c1ccccc1 [2-yl PCB 3 sulfate] ... 105
Oc1ccc(-c2ccc(Cl)cc2)cc1 [4'-OH PCB3] ... 96.6

Let us examine a further case.
Query: Consider the compound shown here: O=S(=O)(O)Oc1cccc(-c2ccc(Cl)cc2)c1 [3'-yl PCB 3 sulfate] What is its recorded viability at 0.1 µM?
Result: 97.1
